Test system: A549
Experiment: cells
Settings: Homo sapiens, A549, 72 h
Description: Antiproliferative activity against human A549 cells after 72 hrs by MTT assay
pIC50: −log10 of the molar value.
ASSAY_METRIC: pIC50

[P] COc1cc2c(Oc3ccc(NC(=O)c4cc5cccnc5n(-c5ccc(Br)cc5)c4=O)cc3F)ccnc2cc1OCCCN1CCOCC1
[Q] COc1cc2c(Oc3ccc(NC(=O)c4cc5cccnc5n(-c5ccc(F)cc5)c4=O)cc3F)ccnc2cc1OCCCN1CCOCC1
Request: Looking only at measured pIC50, which entry is lower, P or Q ? Kindly state the label of the option you pick.
Response: P

* * *

Target: UniProt P09619
Sequence (P09619 whole entry): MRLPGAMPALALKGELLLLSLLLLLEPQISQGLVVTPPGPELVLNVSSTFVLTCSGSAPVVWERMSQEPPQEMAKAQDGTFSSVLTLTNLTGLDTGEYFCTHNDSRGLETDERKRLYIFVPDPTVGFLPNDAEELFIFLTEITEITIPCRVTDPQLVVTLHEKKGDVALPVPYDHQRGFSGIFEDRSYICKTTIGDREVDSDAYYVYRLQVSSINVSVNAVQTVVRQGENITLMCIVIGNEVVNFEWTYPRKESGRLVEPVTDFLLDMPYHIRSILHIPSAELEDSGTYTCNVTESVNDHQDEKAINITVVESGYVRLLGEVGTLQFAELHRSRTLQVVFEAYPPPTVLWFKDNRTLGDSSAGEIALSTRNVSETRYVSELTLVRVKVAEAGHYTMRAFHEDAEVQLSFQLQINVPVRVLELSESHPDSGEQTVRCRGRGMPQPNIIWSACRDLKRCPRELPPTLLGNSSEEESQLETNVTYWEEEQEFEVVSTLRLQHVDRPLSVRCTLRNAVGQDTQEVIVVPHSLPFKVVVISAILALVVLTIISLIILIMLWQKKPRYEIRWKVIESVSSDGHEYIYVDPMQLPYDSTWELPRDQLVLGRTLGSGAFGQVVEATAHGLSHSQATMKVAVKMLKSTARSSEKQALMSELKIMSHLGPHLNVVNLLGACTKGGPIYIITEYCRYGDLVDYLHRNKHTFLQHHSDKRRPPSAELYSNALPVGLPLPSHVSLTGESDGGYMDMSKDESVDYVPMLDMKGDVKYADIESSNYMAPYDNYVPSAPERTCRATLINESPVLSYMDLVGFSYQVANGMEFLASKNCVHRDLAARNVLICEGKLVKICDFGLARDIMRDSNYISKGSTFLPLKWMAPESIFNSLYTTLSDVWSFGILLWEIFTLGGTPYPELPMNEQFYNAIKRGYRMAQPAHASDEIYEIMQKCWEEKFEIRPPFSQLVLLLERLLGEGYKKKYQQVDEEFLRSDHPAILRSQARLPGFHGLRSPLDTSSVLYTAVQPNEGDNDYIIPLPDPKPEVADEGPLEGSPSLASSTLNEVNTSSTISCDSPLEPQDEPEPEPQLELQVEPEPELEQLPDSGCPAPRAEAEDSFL
ASSAY_METRIC: IC50 (nM)
Just the number please, in nM, no unit attached.

Request: What does the data say about its IC50? Entry: COc1cc2c(Oc3ccc(NC(=O)c4cc5cccnc5n(-c5ccc(F)cc5)c4=O)cc3F)ccnc2cc1OCCCN1CCN(C)CC1
Response: 19.5

* * *

Molecular target: ALK tyrosine kinase receptor (Homo sapiens, UniProt Q9UM73)
Sequence (Q9UM73 whole entry): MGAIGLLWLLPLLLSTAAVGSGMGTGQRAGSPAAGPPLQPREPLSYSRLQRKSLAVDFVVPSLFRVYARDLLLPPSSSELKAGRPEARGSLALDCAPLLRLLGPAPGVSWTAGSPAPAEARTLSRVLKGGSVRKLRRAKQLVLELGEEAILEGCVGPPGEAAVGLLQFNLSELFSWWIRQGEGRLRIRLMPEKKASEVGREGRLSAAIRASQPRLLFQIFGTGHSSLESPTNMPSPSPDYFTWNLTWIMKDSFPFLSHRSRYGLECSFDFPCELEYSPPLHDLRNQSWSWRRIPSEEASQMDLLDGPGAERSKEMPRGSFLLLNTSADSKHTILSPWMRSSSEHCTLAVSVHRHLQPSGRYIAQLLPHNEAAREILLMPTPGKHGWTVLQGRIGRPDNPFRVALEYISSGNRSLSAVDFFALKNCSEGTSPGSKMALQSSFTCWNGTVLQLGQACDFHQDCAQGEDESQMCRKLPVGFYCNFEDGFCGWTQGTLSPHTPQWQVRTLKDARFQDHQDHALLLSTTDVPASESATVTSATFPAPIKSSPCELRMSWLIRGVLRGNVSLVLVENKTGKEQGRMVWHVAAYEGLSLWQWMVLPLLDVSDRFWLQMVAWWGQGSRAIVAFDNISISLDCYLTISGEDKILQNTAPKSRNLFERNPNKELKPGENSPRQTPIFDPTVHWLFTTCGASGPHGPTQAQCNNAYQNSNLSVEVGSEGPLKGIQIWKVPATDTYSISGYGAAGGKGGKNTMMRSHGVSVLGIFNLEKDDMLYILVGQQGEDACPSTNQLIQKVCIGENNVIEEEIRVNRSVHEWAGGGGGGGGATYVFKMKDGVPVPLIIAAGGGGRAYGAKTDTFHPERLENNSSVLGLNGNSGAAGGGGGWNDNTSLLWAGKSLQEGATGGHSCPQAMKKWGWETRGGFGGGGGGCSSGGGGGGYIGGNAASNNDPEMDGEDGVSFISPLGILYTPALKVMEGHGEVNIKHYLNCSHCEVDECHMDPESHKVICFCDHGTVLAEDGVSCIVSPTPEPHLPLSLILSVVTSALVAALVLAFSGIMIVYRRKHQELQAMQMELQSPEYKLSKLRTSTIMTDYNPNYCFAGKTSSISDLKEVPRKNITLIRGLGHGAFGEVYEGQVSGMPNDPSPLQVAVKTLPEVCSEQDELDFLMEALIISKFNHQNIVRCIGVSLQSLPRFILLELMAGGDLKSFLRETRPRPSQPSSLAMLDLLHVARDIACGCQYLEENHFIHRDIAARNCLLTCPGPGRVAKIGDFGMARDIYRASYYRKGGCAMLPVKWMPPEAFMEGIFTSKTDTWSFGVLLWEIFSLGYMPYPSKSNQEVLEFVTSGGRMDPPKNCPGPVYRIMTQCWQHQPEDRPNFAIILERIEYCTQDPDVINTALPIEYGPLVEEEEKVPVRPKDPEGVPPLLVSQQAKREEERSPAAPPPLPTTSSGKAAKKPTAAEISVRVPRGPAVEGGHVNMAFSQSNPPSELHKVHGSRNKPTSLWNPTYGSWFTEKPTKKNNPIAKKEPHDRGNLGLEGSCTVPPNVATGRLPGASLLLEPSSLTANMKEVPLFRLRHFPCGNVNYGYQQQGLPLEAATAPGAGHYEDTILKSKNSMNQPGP
ASSAY_METRIC: IC50 (nM)
Just the number please, in nM, no unit attached.

Request: Give ALK tyrosine kinase receptor (Homo sapiens, UniProt Q9UM73) IC50 for COc1cc2c(Oc3ccc(NC(=O)c4cc5cccnc5n(-c5ccc(F)cc5)c4=O)cc3F)ccnc2cc1OCCCN1CCN(C)CC1
Response: 200

* * *

Biological target: Vascular endothelial growth factor receptor 3 (Homo sapiens)
Sequence (P35916 whole entry): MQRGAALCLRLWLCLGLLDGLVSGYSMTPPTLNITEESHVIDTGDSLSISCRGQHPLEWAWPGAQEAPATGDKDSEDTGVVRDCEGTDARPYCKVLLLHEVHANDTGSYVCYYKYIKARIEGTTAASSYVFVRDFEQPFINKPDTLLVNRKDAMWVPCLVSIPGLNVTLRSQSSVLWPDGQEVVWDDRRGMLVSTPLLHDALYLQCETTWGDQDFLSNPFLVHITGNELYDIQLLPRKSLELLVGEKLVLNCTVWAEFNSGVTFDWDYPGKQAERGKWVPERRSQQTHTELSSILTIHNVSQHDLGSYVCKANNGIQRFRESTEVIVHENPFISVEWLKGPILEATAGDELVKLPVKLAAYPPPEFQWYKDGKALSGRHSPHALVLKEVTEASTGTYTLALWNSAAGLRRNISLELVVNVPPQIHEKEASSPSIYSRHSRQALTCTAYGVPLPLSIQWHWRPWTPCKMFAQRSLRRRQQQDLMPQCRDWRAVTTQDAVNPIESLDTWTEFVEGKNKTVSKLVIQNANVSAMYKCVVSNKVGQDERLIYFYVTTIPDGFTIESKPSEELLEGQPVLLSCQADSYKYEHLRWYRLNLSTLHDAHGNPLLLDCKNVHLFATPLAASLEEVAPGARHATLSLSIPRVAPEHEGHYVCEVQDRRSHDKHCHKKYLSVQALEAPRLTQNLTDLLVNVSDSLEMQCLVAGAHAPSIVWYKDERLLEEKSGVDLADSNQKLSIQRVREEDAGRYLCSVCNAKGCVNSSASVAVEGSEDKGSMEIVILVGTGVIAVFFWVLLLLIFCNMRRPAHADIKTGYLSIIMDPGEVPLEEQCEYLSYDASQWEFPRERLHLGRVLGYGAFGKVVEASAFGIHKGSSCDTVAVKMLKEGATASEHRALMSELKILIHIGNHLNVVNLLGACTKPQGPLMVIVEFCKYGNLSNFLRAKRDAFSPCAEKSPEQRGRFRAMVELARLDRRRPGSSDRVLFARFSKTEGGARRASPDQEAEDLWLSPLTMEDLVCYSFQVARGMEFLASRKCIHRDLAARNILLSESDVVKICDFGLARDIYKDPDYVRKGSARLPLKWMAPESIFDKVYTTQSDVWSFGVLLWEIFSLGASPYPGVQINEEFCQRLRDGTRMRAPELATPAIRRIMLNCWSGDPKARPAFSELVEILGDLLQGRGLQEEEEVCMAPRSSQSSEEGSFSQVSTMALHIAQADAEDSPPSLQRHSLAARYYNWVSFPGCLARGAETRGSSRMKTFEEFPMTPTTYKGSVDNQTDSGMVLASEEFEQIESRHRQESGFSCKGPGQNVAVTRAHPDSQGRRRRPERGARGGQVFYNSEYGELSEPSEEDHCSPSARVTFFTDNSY
Assay: Inhibition of FLT4 (unknown origin) using FAM-labeled peptide as substrate incubated for 10 mins followed by substrate addition by HTRF assay
ASSAY_METRIC: IC50 (nM)
Just the number please, in nM, no unit attached.

Request: What does the data say about its IC50? Entry: COc1cc2c(Oc3ccc(NC(=O)c4cc5cccnc5n(-c5ccc(F)cc5)c4=O)cc3F)ccnc2cc1OCCCN1CCN(C)CC1
Response: 183

* * *

System: A549
Assay: cells
Settings: Homo sapiens, A549, 72 h
pIC50: −log10 of the molar value.
ASSAY_METRIC: pIC50

| MOLECULAR_STRING | OBSERVED_MEASUREMENT |
| --- | --- |
| COc1cc2c(Oc3ccc(NC(=O)c4cc5cccnc5n(-c5ccc(Cl)cc5)c4=O)cc3F)ccnc2cc1OCCCN1CCOCC1 | 5.37 |
| COc1cc2c(Oc3ccc(NC(=O)c4cc5cccnc5n(-c5ccccc5)c4=O)cc3F)ccnc2cc1OCCCN1CCOCC1 | 4.78 |

[A] COc1ccc(-n2c(=O)c(C(=O)Nc3ccc(Oc4ccnc5cc(OCCCN6CCOCC6)c(OC)cc45)c(F)c3)cc3cccnc32)cc1
[B] COc1cc2c(Oc3ccc(NC(=O)c4cc5cccnc5n(-c5ccc(C(F)(F)F)cc5Cl)c4=O)cc3F)ccnc2cc1OCCCN1CCOCC1
Request: Name the one with the greater pIC50 value, either A or B as given. Kindly state the label of the option you pick.
Response: B

Source listed as ChEMBL document CHEMBL4265922.
